- TEST_TARGET: T1, His-human LIGHT (human)
- T1 chain: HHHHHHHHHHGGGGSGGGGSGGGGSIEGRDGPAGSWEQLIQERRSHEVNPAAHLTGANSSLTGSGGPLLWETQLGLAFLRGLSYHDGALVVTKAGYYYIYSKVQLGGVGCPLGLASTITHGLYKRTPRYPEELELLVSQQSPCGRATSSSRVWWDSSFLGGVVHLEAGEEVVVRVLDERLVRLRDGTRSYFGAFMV
- METHOD_NOTES: cell-based or functional assay
For each record, write down the corresponding IC50, HVEM NF-κB luciferase reporter (293T-HVEM-NF-κB-Luc), free LIGHT.
Answers are plain numbers, in µg/mL.

Illustrative cases are given below, each with its answer.
LT-m17 (antibody, human IgG4, V domains shown) VH: QVQLQQSGPELVKPGASVKISCKASGYSFTGYFMNWVKQSHGKSLEWIGRIYPYSGDTFYNQKFNNKATLTVDKSSSTAHLELLSLTSEDSAVYYCGRSEHFGRNYGTGAVDYWGQGTSVTVSS VL: DVVMTQTPLSLPVSLGDQASISCRSSQGLVHSNGNTYLHWYLQKPGQSPKLLIYKVSNRFSGVPDRFSGSGSGTDFTLKISRVEAEDLGIYFCSQSTHVPYTFGGGTKLEIK	0.184
LT-m37 (antibody, human IgG4, V domains shown) VH: QVQLKQSGAELVRPGTSVKVSCKASGYSFTGYFINWVKQSHGKSLEWIGRIYPYNVNTFYNQNFKGRATLTADKSSSTAHMELLSLTSEDSAVYYCGRGTHYYGSSGAMDYWGQGTSVTVSS VL: DILLTQSHKFMSTSVGDRVSITCKASQNVGTAVAWYQQKPGQSPKLLIYSASNRYTGVPDRFTGSGSGTDFTLTISNMQSEDLADYFCQQYSSYPYTFGGGTKLEIK	0.264
LT-m58 (antibody, human IgG4, V domains shown) VH: QVQLQQSGAEMASPGASVTLSCKASGYTFIDHIMNWVKKRPGQGLEWIGRIYPVSGETNYNQKFMGKATFSVDRSSSTVYMVLNSLTSEDPAVYYCGRGSYYWNAMDYWGQGTTLTVSS VL: DIVMTQSPASLAVSLGQRATISCKASQSVDFDGDSYMNWYQQKPGQPPKLLIYSASNLESGIPARFSGSGSGTDFTLNIHPVEEEDAATYYCQQSIEDPWTFGGGTKLEIK	0.318
LT-m31 (antibody, human IgG4, V domains shown) VH: QIQLLQSGPELEKPGETVKISCKASGYTFTNYGMNWVKQAPGKGLKWMGWINTYTGEPTYADDFKGRFAFSLETSASTAYLQINNLKNEDTATYFCARDNWDGKGMDYWGQGTSVTVSS VL: DIVLTQSPKFMSTSVGDRVSITCKASQDVDTAVAWYQQKPGHSPKLLLYWASTRHTGVPDRFTGSGSGTDFTLTISNVQSEDLADYFCHQYGSYPLTFGAGTKLELK	0.105

Could you now consider this next binder?
Task: // lookup IC50, HVEM NF-κB luciferase reporter (293T-HVEM-NF-κB-Luc), free LIGHT for LT-m64 (antibody, human IgG4, V domains shown) VH: EVKLEESGAELVKPGASVRLSCKTSGYTFTNYYVYWVKQRPGQGLEWIGEINPTNGDPNFNEKFKSKATLTVDKSSSTAYMHLSSLTSEDSAVYYCTRSNWDYGNAMDFWGQGTSVTVSS VL: DIVMTQSPASLAVSLGQRATISCKASQSVDFDGDGYMNWYQQKPGQPPKLLIYKASHLDSGIPARFSASGSGTDFTLNIHPVEEEDAATYYCQQSIEDPFTFGSGTKLEIK
Result: 0.264
